Form field: Percentage of radioligand bound to serum proteins after 24 h incubation (one value per entry).
- Target Entity: serum proteins (fresh human serum) (human)
- Protocol: incubation in fresh human serum at 37 C (500 pmol/mL), Sephadex G-50 size-exclusion chromatography, gamma counting
[ ]: non-standard residue; d: D form. The star is where a group is joined. DOTA = O=C(O)CN1CCN(CC(=O)O)CCN(CC(=O)*)CCN(CC(=O)O)CC1; 1Nal = N[C@@H](Cc1cccc2ccccc12)C(=O)O; 2Nal = N[C@@H](Cc1ccc2ccccc2c1)C(=O)O; NMeF = CN[C@@H](Cc1ccccc1)C(=O)O; NMeNle = CCCC[C@H](NC)C(=O)O
Reply with just the number (in %).

Binder | Number
{DOTA}-[dE]AYPW[NMeNle]D[1Nal]-NH2 (also: DOTA coordinates 111In) [^111In-DOTA-MGS12] | 45.9
{DOTA}-[dK]AYGW[NMeNle]D[1Nal]-NH2 (also: DOTA coordinating 111In) [^111In-DOTA-MGS9] | 27.8
{DOTA}-[dE]AYGWMD[1Nal]-NH2 (also: DOTA coordinates 111In) [^111In-DOTA-MGS1 (^111In-DOTA-DGlu-Ala-Tyr-Gly-Trp-Met-Asp-1Nal-NH2)] | 28.8
{DOTA}-[dE]YPGW[NMeNle]D[1Nal]-NH2 (also: DOTA coordinates 111In) [^111In-DOTA-MGS10] | 53.4
{DOTA}-[dE]AYGW[NMeNle]D[1Nal]-NH2 (also: DOTA coordinating 111In) [^111In-DOTA-MGS5] | 44.3
{DOTA}-[dE]PYGW[NMeNle]D[1Nal]-NH2 (also: DOTA coordinates 111In) [^111In-DOTA-MGS8] | 52.8

May I ask what Percentage of radioligand bound to serum proteins after 24 h incubation has been recorded for {DOTA}-[dE]AYGW[NMeNle]D[2Nal]-NH2 (also: DOTA coordinating 111In) [^111In-DOTA-MGS5-2] ? 34.6

Now the same for {DOTA}-[dE]AYGW[NMeNle]D[NMeF]-NH2 (also: DOTA coordinates 111In) [^111In-DOTA-MGS4 (^111In-DOTA-DGlu-Ala-Tyr-Gly-Trp-(N-Me)Nle-Asp-(N-Me)Phe-NH2)] 11.9

Values were extracted from patent US20250019402A1.
